Listing of entries alongside the reported GI50.
# Test system: SK-MEL-28
# assay-procedure: NCI tumour cell line growth inhibition, 48 h
Active and inactive are the calls of the source. Rule as the data show it: active = GI50 up to about 1.1 µM and inactive = higher.

Study these solved cases before continuing.
Record request: GI50 value, item O=C1CCC2(CCC(=O)NC2=O)C(=O)N1 > 100 µM (inactive)

Record request: GI50 value, item O=[PH]1c2ccccc2Nc2ccccc21 > 100 µM (inactive)

Record request: GI50 value, item NC12CC3CC(C1)CC(C(=O)O)(C3)C2 > 100 µM (inactive)

Further cases:
Record request: GI50 value, item O=C(Nc1cccc2c1C(=O)c1c(NC(=O)c3ccccc3)ccc(Nc3cccc4c3C(=O)c3ccccc3C4=O)c1C2=O)c1ccccc1 > 100 µM (inactive)

Record request: GI50 value, item CC(O)CNC1=CC(=O)C(=O)c2ccccc21 (stereo unspecified) 19 µM (inactive)

Record request: GI50 value, item Cc1cc(S(=O)(=O)O)c(NC(=O)C(=O)Cc2cc(=O)oc3cc(O)ccc23)cc1Cl > 100 µM (inactive)

Record request: GI50 value, item CC1=CCC[C@@H]2[C@@](C)(Cc3cc(O)ccc3O)[C@H](C)CC[C@@]12C 8.81 µM (inactive)

Record request: GI50 value, item C=C1C(=O)OC2CC(C)C(C(O)CC(C)O)=CCC12 (stereo unspecified) 9.62 µM (inactive)
